From: ChEMBL document CHEMBL1136837

- Test system: Human alphaherpesvirus 2
- method notes: Antiviral activity against Herpes simplex virus 2
- Assay type: functional, organism-based
- condition set: Human alphaherpesvirus 2
// NB: equality with 1 nM counts as 0.0; only IC50 strictly below is 1.0

## Task Lab note: confirm whether the reported IC50 for this compound is below 1 nM, equality not counting. compound: N#CCc1c(N)nc(N)nc1OCCOCP(=O)(O)O
## Result 0.0

## Task Lab note: confirm whether the reported IC50 for this compound is below 1 nM, equality not counting. compound: Nc1cc(OCCOCP(=O)(O)O)nc(N)n1
## Result 1.0

## Task Lab note: confirm whether the reported IC50 for this compound is below 1 nM, equality not counting. compound: Nc1nc(NC2CC2)cc(OCCOCP(=O)(O)O)n1
## Result 1.0

## Task Lab note: confirm whether the reported IC50 for this compound is below 1 nM, equality not counting. compound: Cc1cn(/C=C2/CC2(CO)CO)c(=O)[nH]c1=O
## Result 0.0

## Task Lab note: confirm whether the reported IC50 for this compound is below 1 nM, equality not counting. compound: Nc1ncnc2c1ncn2/C=C1/CC1(CO)CO
## Result 0.0

## Task Lab note: confirm whether the reported IC50 for this compound is below 1 nM, equality not counting. compound: CN(C)c1cc(O)nc(N)n1
## Result 0.0

## Task Lab note: confirm whether the reported IC50 for this compound is below 1 nM, equality not counting. compound: Nc1nc(N)n(CCOCP(=O)(O)O)c(=O)c1CC(=O)O
## Result 0.0

## Task Lab note: confirm whether the reported IC50 for this compound is below 1 nM, equality not counting. compound: Nc1nc(N)c(C2CC2)c(OCCOCP(=O)(O)O)n1
## Result 0.0

## Task Lab note: confirm whether the reported IC50 for this compound is below 1 nM, equality not counting. compound: Nc1nc(N)n(CCOCP(=O)(O)O)c(=O)c1Cc1ccccc1
## Result 0.0

## Task Lab note: confirm whether the reported IC50 for this compound is below 1 nM, equality not counting. compound: Cc1c(N)nc(N)nc1OCCOCP(=O)(O)O
## Result 0.0

## Task Lab note: confirm whether the reported IC50 for this compound is below 1 nM, equality not counting. compound: Nc1nc2c(ncn2/C=C2\CC2(CO)CO)c(=O)[nH]1
## Result 0.0

## Task Lab note: confirm whether the reported IC50 for this compound is below 1 nM, equality not counting. compound: COc1nc(N)nc2c1ncn2/C=C1/CC1(CO)CO
## Result 0.0

## Task Lab note: confirm whether the reported IC50 for this compound is below 1 nM, equality not counting. compound: CC(C)OP(=O)(COCCSc1cc(N)nc(N)n1)OC(C)C
## Result 0.0

## Task Lab note: confirm whether the reported IC50 for this compound is below 1 nM, equality not counting. compound: Nc1nc(N)c2ncn(/C=C3\CC3(CO)CO)c2n1
## Result 0.0

## Task Lab note: confirm whether the reported IC50 for this compound is below 1 nM, equality not counting. compound: Nc1nc(N)c(CC(=O)O)c(OCCOCP(=O)(O)O)n1
## Result 0.0

## Task Lab note: confirm whether the reported IC50 for this compound is below 1 nM, equality not counting. compound: Nc1nc(N)c(Cl)c(OCCOCP(=O)(O)O)n1
## Result 0.0

## Task Lab note: confirm whether the reported IC50 for this compound is below 1 nM, equality not counting. compound: Nc1cc(OC[C@H](CO)OCP(=O)(O)O)nc(N)n1
## Result 1.0
